# Assay Details: qHTS Screen of the MIPE 4.0 Collection Against Ewings Sarcoma (EW8) (AID 1259255); further: nearly all actives have a fitted effect of over 35% in size
# Applied Conditions: EW8 Ewing sarcoma viability, CellTiter-Glo, 48 h; series mostly up to 45.8 µM
Records with an inconclusive call do not appear. Activity calls are given as the source filed them. The call rests on the fitted dose curve; in most records, active means well fitted inhibition curve with a large enough effect; inconclusive means small, poorly fitted or top-dose-only effect; inactive means no such curve, though single readings can be large or run the other way.
Can you answer with just one of these options? active, inactive

Take a look at these entries with their results.
Tell me the assay call for Clc1ccccc1CN1CCc2sccc2C1 please.
inactive

Tell me the assay call for CC(=O)CC(c1ccccc1)c1c(O)c2ccccc2oc1=O (stereo not given) please.
inactive

Tell me the assay call for Nc1[nH]c(=O)ncc1F please.
inactive

Tell me the assay call for NC(=O)c1ccc2[nH]ccc2c1 please.
inactive

Tell me the assay call for Cc1ncc([N+](=O)[O-])n1CCO please.
inactive

Tell me the assay call for O=P(O)(O)C(O)(Cc1cccnc1)P(=O)(O)O please.
inactive

Tell me the assay call for COc1c(N2CCNC(C)C2)c(F)cc2c(=O)c(C(=O)O)cn(C3CC3)c12 (stereo not given) please.
inactive

Tell me the assay call for CCCN[C@H]1CCc2nc(N)sc2C1 please.
inactive

Tell me the assay call for Cc1noc(NS(=O)(=O)c2ccc(N)cc2)c1C please.
inactive

Tell me the assay call for CCC(C)(C)c1ccc(CC(C)CN2C[C@@H](C)O[C@@H](C)C2)cc1 (stereo not given in full) please.
inactive

***
Tell me the assay call for CN(CCOc1ccc(CC2SC(=O)NC2=O)cc1)c1ccccn1 (stereo not given) please.
inactive

Tell me the assay call for CCN(C)C(=O)Oc1cccc([C@H](C)N(C)C)c1 please.
inactive

Tell me the assay call for COc1cnc(NS(=O)(=O)c2ccc(N)cc2)nc1 please.
inactive

Tell me the assay call for NC(=O)c1cccc(N)c1 please.
inactive

Tell me the assay call for CCCCc1oc2ccc(NS(C)(=O)=O)cc2c1C(=O)c1ccc(OCCCN(CCCC)CCCC)cc1 please.
active

* * *

# Test system: HEK293
# Assay Details: Cytotoxic Profiling of Annotated Libraries Using Quantitative High-Throughput Screening (AID 1296008); further: nearly all actives have a fitted effect of over 60% in size
# Applied Conditions: Five cell lines viability, CellTiter-Glo ATP luminescence, 48-72 h
Results filed as inconclusive are left out. The source made the active and inactive calls. The call rests on the fitted dose curve; in most records, active means well fitted inhibition curve with a large enough effect; inconclusive means small, poorly fitted or top-dose-only effect; inactive means flat fitted curve, though single readings scatter.
Can you answer with just one of these options? active, inactive

Tell me the assay call for COc1ccc(C(=O)CC(=O)c2ccc(C(C)(C)C)cc2)cc1 please.
inactive

Tell me the assay call for CCOC(=O)c1ccc(OC(=O)CCCCCN=C(N)N)cc1 please.
inactive

Now turn to the next compound.
Tell me the assay call for NC(=O)N1c2ccccc2CC(=O)c2ccccc21 please.
inactive

* * *

# Assay Details: Quantitative High-Throughput drug screen in 47 multiple myeloma cell lines against the NCATS MIPE library collection: Karpas25_ECACC cell viability assay (AID 1918968; further: nearly all actives have a fitted effect of over 35% in size; further: potency means the concentration at half of the fitted maximal effect)
# Applied Conditions: Karpas25 myeloma viability, CellTiter-Glo ATP, 48 h; series mostly up to 45.8 µM
Records with an inconclusive call do not appear. The source made the active and inactive calls. The call rests on the fitted dose curve; in most records, active means well fitted cell-killing curve with a large enough effect; inconclusive means small, poorly fitted or top-dose-only effect, or effect the other way; inactive means no such curve, though single readings can be large or run the other way.
Property Measured: Potency

Some compounds with recorded Potency:
Name the reported Potency value associated with the compound CCCCOc1ccc(CC(=O)NO)cc1
6.62 µM (active)

Name the reported Potency value associated with the compound CC(=O)CC(c1ccccc1)c1c(O)c2ccccc2oc1=O (stereo not given)
inactive

Name the reported Potency value associated with the compound CCN[C@H]1C[C@H](C)S(=O)(=O)c2sc(S(N)(=O)=O)cc21
inactive

Name the reported Potency value associated with the compound Cc1ncc([N+](=O)[O-])n1CCO
inactive

Name the reported Potency value associated with the compound Oc1c(Cl)cc(Cl)c2cccnc12
9.35 µM (active)

Name the reported Potency value associated with the compound CC(C)OC(=O)OCOP(=O)(CO[C@H](C)Cn1cnc2c(N)ncnc21)OCOC(=O)OC(C)C
14.8 µM (active)

Provide each entry's Potency from the list below.
1. NCCCC(O)(P(=O)(O)O)P(=O)(O)O
2. OCc1ccc(-c2nn(Cc3ccccc3)c3ccccc23)o1
3. CC1CC2C3CCC4=CC(=O)C=C[C@]4(C)[C@@]3(F)[C@@H](O)C[C@]2(C)[C@@]1(O)C(=O)CO (stereo not given in full)

1. 16.6 µM (active)
2. 9.35 µM (active)
3. 0.209 µM (active)
